tested_on: T1, Macaca fascicularis (mf) RET.mmh (Macaca fascicularis)
T1 construct: also called monkey RET
T1 chain: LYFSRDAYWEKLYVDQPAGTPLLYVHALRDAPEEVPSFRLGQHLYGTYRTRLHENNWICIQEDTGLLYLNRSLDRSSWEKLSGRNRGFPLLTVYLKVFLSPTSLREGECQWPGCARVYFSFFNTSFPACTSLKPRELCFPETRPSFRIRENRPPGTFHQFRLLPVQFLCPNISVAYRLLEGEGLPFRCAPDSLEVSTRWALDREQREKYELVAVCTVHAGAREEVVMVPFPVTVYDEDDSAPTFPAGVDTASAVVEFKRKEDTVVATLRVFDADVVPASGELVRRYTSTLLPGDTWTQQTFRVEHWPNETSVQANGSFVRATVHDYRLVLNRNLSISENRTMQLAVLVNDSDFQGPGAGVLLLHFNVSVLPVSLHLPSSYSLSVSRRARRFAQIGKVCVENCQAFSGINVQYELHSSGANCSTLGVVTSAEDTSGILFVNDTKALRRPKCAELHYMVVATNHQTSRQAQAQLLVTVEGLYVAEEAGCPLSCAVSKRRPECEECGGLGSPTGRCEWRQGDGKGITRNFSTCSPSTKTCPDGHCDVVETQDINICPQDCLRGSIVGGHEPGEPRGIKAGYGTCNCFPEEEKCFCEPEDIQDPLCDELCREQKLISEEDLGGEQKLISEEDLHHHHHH
assay_comment: SPR Biacore T200, mAb capture, 37 C
Method: Binding affinities and kinetic constants of human anti-RET antibodies were determined by surface plasmon resonance (Biacore T200) at […] (Tables 2-3). […] Binding equilibrium dissociation constants (KD) and dissociative half-lives (t_{1/2}) were calculated from the kinetic rate constants as: KD [M]=kd/kₐ; and t_{1/2}(min)=(ln2/(60*kd). Calculations were performed using BiacoreT200 evaluation software v1.0.
readout_name: koff
Include the unit after the number when you answer.

Measured koff of H4H8045P (antibody, human IgG4, V domains shown, human IgG4 Fc (H4H prefix)) VH: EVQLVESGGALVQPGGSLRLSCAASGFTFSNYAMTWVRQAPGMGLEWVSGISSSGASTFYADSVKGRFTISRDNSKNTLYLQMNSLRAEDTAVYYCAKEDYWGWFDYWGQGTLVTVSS VL: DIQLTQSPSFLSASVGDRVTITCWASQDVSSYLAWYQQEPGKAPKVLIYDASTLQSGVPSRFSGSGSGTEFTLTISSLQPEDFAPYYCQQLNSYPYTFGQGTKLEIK : 0.0131 s⁻¹

Measured koff of H4H8060P (antibody, human IgG4, V domains shown, human IgG4 Fc (H4H prefix)) VH: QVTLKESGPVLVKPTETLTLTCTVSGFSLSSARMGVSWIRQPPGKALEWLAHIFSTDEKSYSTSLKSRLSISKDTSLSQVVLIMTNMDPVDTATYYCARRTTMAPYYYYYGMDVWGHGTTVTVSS VL: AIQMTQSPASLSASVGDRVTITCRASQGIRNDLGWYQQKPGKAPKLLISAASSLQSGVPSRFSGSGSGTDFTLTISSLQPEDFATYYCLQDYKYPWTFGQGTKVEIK : 0.00209 s⁻¹

Measured koff of H4H8062P (antibody, human IgG4, V domains shown, human IgG4 Fc (H4H prefix)) VH: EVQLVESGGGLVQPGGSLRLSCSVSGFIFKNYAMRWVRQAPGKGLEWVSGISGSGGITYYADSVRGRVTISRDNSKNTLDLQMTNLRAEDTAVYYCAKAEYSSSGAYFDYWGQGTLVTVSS VL: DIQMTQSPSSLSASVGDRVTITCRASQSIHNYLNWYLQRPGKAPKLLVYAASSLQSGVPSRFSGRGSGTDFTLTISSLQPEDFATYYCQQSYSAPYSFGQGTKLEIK : 0.00428 s⁻¹

Measured koff of H4H8084P (antibody, human IgG4, V domains shown, human IgG4 Fc (H4H prefix)) VH: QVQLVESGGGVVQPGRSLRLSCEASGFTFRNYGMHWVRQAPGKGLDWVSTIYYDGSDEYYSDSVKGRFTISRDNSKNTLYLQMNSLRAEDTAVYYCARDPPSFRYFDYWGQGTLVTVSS VL: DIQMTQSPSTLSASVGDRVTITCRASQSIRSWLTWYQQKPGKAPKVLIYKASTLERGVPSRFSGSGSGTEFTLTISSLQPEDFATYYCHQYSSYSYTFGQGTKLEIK : 0.00178 s⁻¹

Measured koff of H4H8071P (antibody, human IgG4, V domains shown, human IgG4 Fc (H4H prefix)) VH: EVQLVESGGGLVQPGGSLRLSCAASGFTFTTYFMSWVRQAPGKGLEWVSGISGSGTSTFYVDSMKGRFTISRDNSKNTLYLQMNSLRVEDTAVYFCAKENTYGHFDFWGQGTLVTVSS VL: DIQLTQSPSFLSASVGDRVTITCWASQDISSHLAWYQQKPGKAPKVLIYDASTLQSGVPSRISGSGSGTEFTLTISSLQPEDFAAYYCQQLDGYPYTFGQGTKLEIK : 0.00114 s⁻¹
